Assay: xn = mol fraction of the nth substance listed, in the solute-free solvent
Conditions: 288.15 K; x2 = 0.9
Label yes when solubility (g/100 g solution) is at or above 10; anything below gets no.

molecule: CN1CCN(C(=O)OC2c3nccnc3C(=O)N2c2ccc(Cl)cn2)CC1 (stereo not given) + C1CCOC1 + O
group label: no
--
molecule: O=c1ccc2ccccc2o1 + CC(C)=O + O
group label: yes
--
molecule: CC1(C)SC2C(NC(=O)C(NC(=O)N3CCNC3=O)c3ccccc3)C(=O)N2C1C(=O)O (stereo not given) + CO + CC(C)O
group label: no
--
molecule: CN1CCN(C(=O)OC2c3nccnc3C(=O)N2c2ccc(Cl)cn2)CC1 (stereo not given) + CCO + O
group label: no
--
molecule: O=c1ccc2ccccc2o1 + CO + O
group label: yes

* * *

Assay: xn = mol fraction of the nth substance listed, in the solute-free solvent
Conditions: 308.15 K; x2 = 0.1139
solubility (g/100 g solution) reference
attribute measured: solubility (g/100 g solution)

molecule: CC(=O)Nc1ccc(OC(=O)c2ccccc2OC(C)=O)cc1 + CC(C)O + O
reported result: 0.0958
--
molecule: O=[N+]([O-])c1cc[nH]n1 + CCCO + O
reported result: 1.78
--
molecule: CS(=O)(=O)c1ccc(C(O)C(CF)NC(=O)C(Cl)Cl)cc1 (stereo not drawn) + CC(C)O + O
reported result: 0.828

* * *

Assay: xn = mol fraction of the nth substance listed, in the solute-free solvent
Details: 298.15 K; x2 = 0.9
solubility (g/100 g solution) reference
attribute measured: solubility (g/100 g solution)

molecule: CC1(C)SC2C(NC(=O)C(NC(=O)N3CCNC3=O)c3ccccc3)C(=O)N2C1C(=O)O (stereo not given) + CCO + CC(C)O
attribute measured: solubility (g/100 g solution)
reported result: 1.11
--
molecule: O=c1ccc2ccccc2o1 + CC(C)=O + O
attribute measured: solubility (g/100 g solution)
reported result: 53.9
--
molecule: CN1CCN(C(=O)OC2c3nccnc3C(=O)N2c2ccc(Cl)cn2)CC1 (stereo not given) + C1CCOC1 + O
attribute measured: solubility (g/100 g solution)
reported result: 4.87
--
molecule: CCCCN1CCCCC1C(=O)Nc1c(C)cccc1C.Cl.O (stereo not given) + CCO + O
attribute measured: solubility (g/100 g solution)
reported result: 4.34
--
molecule: O=c1[nH]cc(F)c(=O)[nH]1 + CO + C1CCOC1
attribute measured: solubility (g/100 g solution)
reported result: 0.914
